Biological target: telomerase activity in Hek293 cells (Homo sapiens)
Construct: Log phase Huh7, Hek293 and Huh5.15 HCV replicon cells; endogenous in cells; host or cells: Hek293 (wild type)
Assay: Telomerase activity by TRAP after incubation of intact Hek293 cells with MPP
Assay type: cell-based
Details: Figure 3A middle panel; 48 h; read-out: EC50 of telomerase activity in cultured Hek293 cells
TEST READOUT: EC50

[[record]]
molecule = "C=CC1=C(C)c2cc3[n-]c(cc4[n-]c(cc5nc(cc1n2)C(C)=C5C=C)c(C)c4CCC(=O)O)c(CCC(=O)O)c3C.[Fe+2] [FePP, iron protoporphyrin (heme)]"
observed_result = "> 10 µM"


Let's switch to this molecule now.
Prompt line: Determine from records and report EC50 for C=Cc1c2[n-]c(c1C)/C=c1\[n-]/c(c(C)c1C=C)=C\c1[n-]c(c(CCC(=O)O)c1C)/C=c1\[n-]c(c(C)c1CCC(=O)O)=C2.[Sn+4] [SnPP, tin protoporphyrin]
Response line: > 10 µM

----------
Molecular target: telomerase activity in Hek293 cells (Homo sapiens)
Construct: Log phase Huh7, Hek293 and Huh5.15 HCV replicon cells; endogenous in cells; host or cells: Hek293 (wild type)
Test: Telomerase activity by TRAP after incubation of intact Hek293 cells with MPP
Format: cell-based
Conditions: Table 2d; mean of 2–4 experiments; 48 h incubation; read-out: EC50, intact Hek293 cells [TRAP]
pEC50: −log10 of the molar value.
TEST READOUT: pEC50

[[record]]
molecule = "C=CC1=C(C)c2cc3[n-]c(cc4[n-]c(cc5nc(cc1n2)C(C)=C5C=C)c(C)c4CCC(=O)O)c(CCC(=O)O)c3C.[Fe+2] [FePP, iron protoporphyrin (heme)]"
tgt = "telomerase activity in Hek293 cells (Homo sapiens)"
test_readout = "pEC50"
observed_result = "< 4.70"


Let's switch to this molecule now.
Prompt line: Determine from records and report pEC50 for C=Cc1c2[n-]c(c1C)/C=c1\[n-]/c(c(C)c1C=C)=C\c1[n-]c(c(CCC(=O)O)c1C)/C=c1\[n-]c(c(C)c1CCC(=O)O)=C2.[Sn+4] [SnPP, tin protoporphyrin]
Response line: < 4.70

----------
Biological target: telomerase activity in Huh7 cells (Homo sapiens, UniProt O14746)
Construct: Enzymatic extracts were prepared from semi‐confluent phase Huh7 cells and aliquots were assayed in triplicate using TRAP assay; endogenous in cells; host or cells: Huh7
Sequence (O14746 whole entry): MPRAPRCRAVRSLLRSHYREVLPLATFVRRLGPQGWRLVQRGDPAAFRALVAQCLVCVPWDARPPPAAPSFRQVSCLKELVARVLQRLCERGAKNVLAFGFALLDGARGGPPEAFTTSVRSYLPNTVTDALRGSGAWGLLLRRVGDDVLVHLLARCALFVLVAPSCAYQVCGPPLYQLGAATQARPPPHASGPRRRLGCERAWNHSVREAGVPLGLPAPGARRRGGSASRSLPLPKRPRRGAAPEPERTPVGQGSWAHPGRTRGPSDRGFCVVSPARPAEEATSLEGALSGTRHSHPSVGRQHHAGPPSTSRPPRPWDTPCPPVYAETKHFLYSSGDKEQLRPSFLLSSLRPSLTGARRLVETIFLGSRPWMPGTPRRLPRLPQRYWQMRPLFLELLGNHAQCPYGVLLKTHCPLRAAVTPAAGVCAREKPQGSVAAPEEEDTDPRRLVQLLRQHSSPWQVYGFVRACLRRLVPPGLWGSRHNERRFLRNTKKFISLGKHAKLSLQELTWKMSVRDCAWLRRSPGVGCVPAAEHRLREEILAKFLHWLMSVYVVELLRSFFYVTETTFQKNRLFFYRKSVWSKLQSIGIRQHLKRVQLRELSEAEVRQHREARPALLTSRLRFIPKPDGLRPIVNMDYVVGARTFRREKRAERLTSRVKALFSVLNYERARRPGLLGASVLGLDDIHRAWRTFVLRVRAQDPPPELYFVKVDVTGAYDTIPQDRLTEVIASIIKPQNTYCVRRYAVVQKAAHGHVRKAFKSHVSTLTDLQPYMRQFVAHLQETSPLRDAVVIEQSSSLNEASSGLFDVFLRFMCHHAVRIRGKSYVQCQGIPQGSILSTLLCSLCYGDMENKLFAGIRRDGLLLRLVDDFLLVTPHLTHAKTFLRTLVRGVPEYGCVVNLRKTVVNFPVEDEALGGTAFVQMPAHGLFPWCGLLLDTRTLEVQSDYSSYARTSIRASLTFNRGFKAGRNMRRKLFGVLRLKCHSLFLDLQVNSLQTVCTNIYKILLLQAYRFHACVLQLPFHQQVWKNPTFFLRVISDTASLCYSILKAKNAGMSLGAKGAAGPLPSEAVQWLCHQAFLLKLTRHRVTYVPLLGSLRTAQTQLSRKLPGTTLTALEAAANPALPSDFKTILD
Sequence (O60832 whole entry partner): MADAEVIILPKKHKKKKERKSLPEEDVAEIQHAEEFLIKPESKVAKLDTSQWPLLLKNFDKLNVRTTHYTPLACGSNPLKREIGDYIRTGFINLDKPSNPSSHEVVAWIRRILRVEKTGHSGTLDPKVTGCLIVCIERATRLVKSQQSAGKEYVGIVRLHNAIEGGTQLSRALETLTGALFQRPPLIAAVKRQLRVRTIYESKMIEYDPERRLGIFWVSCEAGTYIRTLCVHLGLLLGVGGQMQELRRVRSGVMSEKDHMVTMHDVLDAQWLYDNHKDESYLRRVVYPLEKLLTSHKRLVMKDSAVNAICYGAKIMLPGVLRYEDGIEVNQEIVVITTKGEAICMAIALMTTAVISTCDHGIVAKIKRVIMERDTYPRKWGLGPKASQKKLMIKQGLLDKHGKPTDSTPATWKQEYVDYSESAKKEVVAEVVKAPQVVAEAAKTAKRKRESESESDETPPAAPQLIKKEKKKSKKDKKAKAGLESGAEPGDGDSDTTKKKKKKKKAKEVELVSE
Sequence (Q9NPE3 whole entry partner): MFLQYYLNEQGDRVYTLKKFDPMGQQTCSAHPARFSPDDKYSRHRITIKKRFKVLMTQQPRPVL
Sequence (Q9NX24 whole entry partner): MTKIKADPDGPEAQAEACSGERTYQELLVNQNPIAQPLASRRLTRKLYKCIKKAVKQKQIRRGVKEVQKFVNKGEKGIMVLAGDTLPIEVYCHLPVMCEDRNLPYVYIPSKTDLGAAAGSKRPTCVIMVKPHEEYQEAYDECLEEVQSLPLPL
Sequence (Q9NY12 whole entry partner): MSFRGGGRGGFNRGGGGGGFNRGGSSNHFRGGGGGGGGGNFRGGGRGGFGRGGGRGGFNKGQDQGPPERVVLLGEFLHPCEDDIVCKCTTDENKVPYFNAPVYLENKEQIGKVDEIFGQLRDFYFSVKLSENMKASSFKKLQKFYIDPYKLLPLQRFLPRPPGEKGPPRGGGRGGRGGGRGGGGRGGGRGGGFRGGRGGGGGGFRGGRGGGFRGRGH
Sequence (Q9BUR4 whole entry partner): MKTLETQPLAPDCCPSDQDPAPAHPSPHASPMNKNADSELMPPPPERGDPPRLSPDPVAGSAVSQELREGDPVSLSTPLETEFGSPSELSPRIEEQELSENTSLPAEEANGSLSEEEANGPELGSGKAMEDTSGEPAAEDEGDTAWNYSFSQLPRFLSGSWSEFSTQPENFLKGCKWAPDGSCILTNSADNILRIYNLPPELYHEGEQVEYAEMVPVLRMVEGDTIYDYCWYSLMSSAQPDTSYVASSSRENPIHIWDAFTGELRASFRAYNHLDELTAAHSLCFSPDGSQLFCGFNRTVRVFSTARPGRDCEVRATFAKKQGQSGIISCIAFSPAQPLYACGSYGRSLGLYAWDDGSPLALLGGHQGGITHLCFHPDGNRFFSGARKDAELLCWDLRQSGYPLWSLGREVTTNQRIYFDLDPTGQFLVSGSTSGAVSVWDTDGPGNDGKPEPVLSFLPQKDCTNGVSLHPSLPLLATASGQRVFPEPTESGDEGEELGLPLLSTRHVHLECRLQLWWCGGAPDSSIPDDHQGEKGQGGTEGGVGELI
Assay: Telomerase activity by TRAP after incubation of intact Huh7 cells with MPP
Type: cell-based
Conditions: Table 2c; mean of 2–4 experiments; 48 h incubation; read-out: EC50, intact Huh7 cells [TRAP]
TEST READOUT: pEC50
Bear in mind: pEC50 is minus log10 of a mol/L concentration; give just that figure.

Prompt line: Fetch value of pEC50 on telomerase activity in Huh7 cells (Homo sapiens, UniProt O14746) for C=Cc1c2[n-]c(c1C)/C=c1\[n-]/c(c(C)c1C=C)=C\c1[n-]c(c(CCC(=O)O)c1C)/C=c1\[n-]c(c(C)c1CCC(=O)O)=C2.[Sn+4] [SnPP, tin protoporphyrin] .
Response line: 4.97

----------
Target: telomerase (Homo sapiens)
Test: TRAP (TRAPeze) telomerase activity assay in Huh7 cellular lysates/enzymatic extracts
Format: biochemical
Set-up: Enzymatic extracts were prepared from semi‐confluent phase Huh7 cells and aliquots were assayed in triplicate using TRAP assay; endogenous in cells; host or cells: Huh7
Settings: individual experiment, Figure 3B-D; gel densitometry; read-out: IC50 of telomerase activity, TRAP in Huh7 extracts
Sequence (O14746 whole entry): as the sequence (O14746 whole entry) above
Sequence (O60832 whole entry partner): as the sequence (O60832 whole entry partner) above
Sequence (Q9NPE3 whole entry partner): as the sequence (Q9NPE3 whole entry partner) above
Sequence (Q9NX24 whole entry partner): as the sequence (Q9NX24 whole entry partner) above
Sequence (Q9NY12 whole entry partner): as the sequence (Q9NY12 whole entry partner) above
Sequence (Q9BUR4 whole entry partner): as the sequence (Q9BUR4 whole entry partner) above
# reported IC50; entries follow

[[record]]
molecular_string = "C=CC1=C(C)c2cc3[n-]c(cc4[n-]c(cc5nc(cc1n2)C(C)=C5C=C)c(C)c4CCC(=O)O)c(CCC(=O)O)c3C.[Fe+2]"
observed_result = "> 10 µM"


Let's switch to this molecule now.
Prompt line: Determine from records and report IC50 for `C=Cc1c2[n-]c(c1C)/C=c1\[n-]/c(c(C)c1C=C)=C\c1[n-]c(c(CCC(=O)O)c1C)/C=c1\[n-]c(c(C)c1CCC(=O)O)=C2.[Sn+4]`
Response line: > 10 µM

----------
Biological target: Taq DNA polymerase (Thermus aquaticus)
Construct: purchased Perkin‐Elmer Cetus, Norwalk, CT
Sequence (P19821 whole entry): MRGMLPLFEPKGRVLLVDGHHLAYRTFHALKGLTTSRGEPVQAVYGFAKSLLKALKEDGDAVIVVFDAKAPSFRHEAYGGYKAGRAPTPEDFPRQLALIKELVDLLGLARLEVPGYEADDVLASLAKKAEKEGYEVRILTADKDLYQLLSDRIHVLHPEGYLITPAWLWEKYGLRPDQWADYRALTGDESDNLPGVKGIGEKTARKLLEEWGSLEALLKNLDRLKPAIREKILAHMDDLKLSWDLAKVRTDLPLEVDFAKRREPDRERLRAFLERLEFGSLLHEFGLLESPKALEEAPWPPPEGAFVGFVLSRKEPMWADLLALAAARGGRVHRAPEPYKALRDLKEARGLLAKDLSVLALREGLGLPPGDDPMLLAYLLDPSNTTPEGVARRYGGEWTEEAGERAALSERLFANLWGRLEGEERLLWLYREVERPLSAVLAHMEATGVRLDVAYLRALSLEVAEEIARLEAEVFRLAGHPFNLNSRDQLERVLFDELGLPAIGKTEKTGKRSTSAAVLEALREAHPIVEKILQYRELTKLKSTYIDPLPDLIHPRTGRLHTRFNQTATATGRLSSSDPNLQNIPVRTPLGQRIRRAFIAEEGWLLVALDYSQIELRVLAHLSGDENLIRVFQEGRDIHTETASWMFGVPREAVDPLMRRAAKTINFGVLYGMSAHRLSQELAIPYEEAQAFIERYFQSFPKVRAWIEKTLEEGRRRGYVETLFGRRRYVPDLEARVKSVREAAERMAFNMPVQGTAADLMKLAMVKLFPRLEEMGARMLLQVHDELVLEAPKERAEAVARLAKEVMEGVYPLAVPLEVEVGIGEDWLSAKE
Assay: Taq polymerase inhibition test, MPP added after the telomerase extension step of TRAP
Format: biochemical
Conditions: TRAP, MPP added for the amplification steps only
TEST READOUT: Effect on Taq polymerase

[[record]]
molecule = "C=CC1=C(C)c2cc3[n-]c(cc4nc(cc5[n-]c(cc1n2)c(C)c5C=C)C(C)=C4CCC(=O)O)c(CCC(=O)O)c3C.[Zn+2] [ZnPP, zinc protoporphyrin]"
observed_result = "minimal inhibition"

[[record]]
molecule = "C=Cc1c2[n-]c(c1C)/C=c1\\[n-]/c(c(C)c1C=C)=C\\c1[n-]c(c(CCC(=O)O)c1C)/C=c1\\[n-]c(c(C)c1CCC(=O)O)=C2.[Sn+4] [SnPP, tin protoporphyrin]"
observed_result = "minimal inhibition"

[[record]]
molecule = "C=CC1=C(C)c2cc3[n-]c(cc4[n-]c(cc5nc(cc1n2)C(C)=C5C=C)c(C)c4CCC(=O)O)c(CCC(=O)O)c3C.[Fe+2] [FePP, iron protoporphyrin (heme)]"
observed_result = "minimal inhibition"


----------
Biological target: telomerase (Homo sapiens, UniProt O14746)
Assay: Direct α-32P-dGTP telomerase extension assay, IP eluates of HEK-293T cells overexpressing TERT, TERC and dyskerin
Format: biochemical
Set-up: purchased Abbexa Ltd (UK) Abx069991; host or cells: HEK-293T cells overexpressing TERT, TERC and dyskerin
Conditions: Table 2b; mean of 2–4 experiments
Description: For direct telomerase activity assay, a modified procedure of Tomlinson et al[26] was used. Briefly, HEK‐293T cell pellet from 10^7 cells overexpressing TERT, TERC, and dyskerin was obtained from Abbexa Ltd (UK. Abx069991). […] This screen was then scanned using a STORM phosphorimager (Molecular Dynamics), and bands were quantified using GelAnalyzer as described above. […]
Sequence (O14746 whole entry): as the sequence (O14746 whole entry) above
Sequence (O60832 whole entry partner): as the sequence (O60832 whole entry partner) above
Sequence (Q9NPE3 whole entry partner): as the sequence (Q9NPE3 whole entry partner) above
Sequence (Q9NX24 whole entry partner): as the sequence (Q9NX24 whole entry partner) above
Sequence (Q9NY12 whole entry partner): as the sequence (Q9NY12 whole entry partner) above
TEST READOUT: pIC50
Bear in mind: pIC50 is minus log10 of a mol/L concentration; give just that figure.

Prompt line: Determine from records and report pIC50 for `C=CC1=C(C)c2cc3[n-]c(cc4[n-]c(cc5nc(cc1n2)C(C)=C5C=C)c(C)c4CCC(=O)O)c(CCC(=O)O)c3C.[Fe+2]`
Response line: 4.74

----------
# reported EC50; entries follow
Target: telomerase activity in Huh7 cells (Homo sapiens, UniProt O14746)
Construct: Enzymatic extracts were prepared from semi‐confluent phase Huh7 cells and aliquots were assayed in triplicate using TRAP assay; endogenous in cells; host or cells: Huh7
Assay: Telomerase activity by TRAP after incubation of intact Huh7 cells with MPP
Assay type: cell-based
Settings: Figure 3A upper panel; 48 h; read-out: EC50 of telomerase activity in cultured Huh7 cells

[[record]]
molecular_string = "C=Cc1c2[n-]c(c1C)/C=c1\\[n-]/c(c(C)c1C=C)=C\\c1[n-]c(c(CCC(=O)O)c1C)/C=c1\\[n-]c(c(C)c1CCC(=O)O)=C2.[Sn+4]"
observed_result = "> 10 µM"


Prompt line: Determine from records and report EC50 for `C=CC1=C(C)c2cc3[n-]c(cc4[n-]c(cc5nc(cc1n2)C(C)=C5C=C)c(C)c4CCC(=O)O)c(CCC(=O)O)c3C.[Fe+2]`
Response line: > 10 µM
